Biological target: SCD5 (Homo sapiens)
Construct: host or cells: S. cerevisiae ole1Δ strain (W303 pdr1Δ pdr3Δ background), plasmid pRS316 with TDH3 promoter and CYC1 terminator
Sequence (Q86SK9 whole entry): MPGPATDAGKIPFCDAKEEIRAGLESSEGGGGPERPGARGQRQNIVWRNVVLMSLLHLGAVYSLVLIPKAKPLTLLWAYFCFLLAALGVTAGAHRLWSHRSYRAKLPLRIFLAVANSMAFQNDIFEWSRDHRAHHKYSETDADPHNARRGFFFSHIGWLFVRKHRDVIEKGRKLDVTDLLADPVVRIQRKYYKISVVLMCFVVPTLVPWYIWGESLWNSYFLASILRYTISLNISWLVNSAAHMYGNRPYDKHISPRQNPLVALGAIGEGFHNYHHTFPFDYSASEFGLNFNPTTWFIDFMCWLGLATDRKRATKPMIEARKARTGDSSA
Test: Growth inhibition of humanized yeast strain expressing SCD5 as sole desaturase
Type: cell-based
Details: humanized yeast strain, 40 h
pIC50: −log10 of the molar value.
Label Fulfilled when pIC50 >= 6; otherwise Not fulfilled.

Inquiry: pIC50 >= 6 for O=C(C1CC2(CC2)C1)N1CCC(c2noc(-c3ccc4oc(=O)n(C5COC5)c4c3)n2)CC1 [Compound 1021] ?
Reply text: Fulfilled

Inquiry: pIC50 >= 6 for CC(C)C(=O)N1CCC(c2noc(-c3cncc(N4CCC(F)(F)C4)c3)n2)CC1 [Compound 1174] ?
Reply text: Not fulfilled

Inquiry: pIC50 >= 6 for CC(C)(C)OC(=O)N1CCC(c2noc(-c3ccc4ccn(C5COC5)c4c3)n2)CC1 [Compound 1039] ?
Reply text: Fulfilled

Inquiry: pIC50 >= 6 for CC(C)(C)OC(=O)N1CCC(c2noc(-c3ccc4oc(=O)[nH]c4c3)n2)CC1 [Compound 1009] ?
Reply text: Not fulfilled

Inquiry: pIC50 >= 6 for O=C(C1CC1)N1CCN(c2noc(-c3ccnc(NC4COC4)c3)n2)CC1 [Compound 1117] ?
Reply text: Not fulfilled

Inquiry: pIC50 >= 6 for C[C@@H]1C[C@@H](c2noc(-c3ccc4cnn(C5COC5)c4c3)n2)CCN1C(=O)OC(C)(C)C [Compound 1019] ?
Reply text: Fulfilled

Inquiry: pIC50 >= 6 for C[C@@H]1C[C@H](c2noc(-c3ccc4cnn(C5COC5)c4c3)n2)CCN1C(=O)OC(C)(C)C [Compound 1017] ?
Reply text: Fulfilled

====

Exercise: state measured pIC50 for each of the compounds provided.
Molecular target: SCD1 (Homo sapiens, UniProt O00767)
Construct: host or cells: S. cerevisiae ole1Δ strain (W303 pdr1Δ pdr3Δ background), plasmid pRS316 with TDH3 promoter and CYC1 terminator
Sequence (O00767 1-359): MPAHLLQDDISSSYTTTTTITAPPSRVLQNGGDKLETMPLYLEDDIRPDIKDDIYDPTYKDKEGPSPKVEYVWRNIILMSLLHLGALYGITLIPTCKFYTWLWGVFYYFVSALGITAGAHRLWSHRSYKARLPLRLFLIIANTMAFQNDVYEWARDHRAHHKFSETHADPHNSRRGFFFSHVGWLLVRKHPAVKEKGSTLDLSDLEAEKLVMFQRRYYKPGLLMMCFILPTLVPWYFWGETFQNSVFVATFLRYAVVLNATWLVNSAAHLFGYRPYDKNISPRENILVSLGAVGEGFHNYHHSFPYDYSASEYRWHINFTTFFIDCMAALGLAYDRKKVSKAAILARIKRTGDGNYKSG
Assay: Growth inhibition of humanized yeast strain expressing SCD1 as sole desaturase
Type: cell-based
Conditions: humanized yeast strain expressing SCD1
Procedure: Strain oleΔ (yeast ole1 deletion mutant) was constructed by deleting OLE1 with NAT-MX6 in BY4741, amplifying the deletion cassette from the genomic DNA of the resulting strain with primers flanking the ORF by 1000 bp upstream and downstream, transforming the resulting deletion cassette into W303 pdr1Δ pdr3Δ, and plating transformants on YPD media containing G418 (200 μg/mL) and nourseothricin ([…]) with 0.01% TWEEN®-20 and 0.5 mM oleic and palmitoleic acids. […]
pIC50: −log10 of the molar value.

Inquiry: Consider the compound CCN1C(=O)COc2ccc(-c3nc(C4(c5ccccc5)CC4)no3)cc21 and give its recorded pIC50.
Reply text: 4.41

Inquiry: Consider the compound O=C(C1CCN(c2nc(-c3ccccc3)no2)CC1)N1CCOCC1 and give its recorded pIC50.
Reply text: < 4.35

Inquiry: Consider the compound Cc1nn(C)c2cc(-c3noc(C4CCN(C(=O)c5ccccc5C(F)(F)F)CC4)n3)ccc12 and give its recorded pIC50.
Reply text: 4.46

Inquiry: Consider the compound Cc1nn(C)c2ccc(-c3noc(C4CCN(C(=O)N5CCCCC5)CC4)n3)cc12 and give its recorded pIC50.
Reply text: < 4.35

Inquiry: Consider the compound Cc1nn(C)c2cc(-c3noc(C4CCN(C(=O)[C@H]5CN(c6ccccc6)C(=O)O5)CC4)n3)ccc12 and give its recorded pIC50.
Reply text: < 4.35

Inquiry: Consider the compound Cc1nn(C)c2cc(-c3noc(C4CCN(C(=O)CNC(=O)OC(C)(C)C)CC4(F)F)n3)ccc12 (centres unmarked) and give its recorded pIC50.
Reply text: 6.02

Inquiry: Consider the compound COc1ccc(-c2noc(C3CCN(C(=O)/C=C/C(=O)c4ccccc4)CC3)n2)cc1OC and give its recorded pIC50.
Reply text: < 4.35

Inquiry: Consider the compound COc1ccc(-c2nnc(C3CCN(C(=O)CNC(=O)c4ccccc4)CC3)o2)cc1OC and give its recorded pIC50.
Reply text: < 4.35
